Biological target: ~100 representative kinases (Homo sapiens)
Construct: Recombinant protein kinase domains with a concentration of 2 μM
Sequence (Q13188 1-491): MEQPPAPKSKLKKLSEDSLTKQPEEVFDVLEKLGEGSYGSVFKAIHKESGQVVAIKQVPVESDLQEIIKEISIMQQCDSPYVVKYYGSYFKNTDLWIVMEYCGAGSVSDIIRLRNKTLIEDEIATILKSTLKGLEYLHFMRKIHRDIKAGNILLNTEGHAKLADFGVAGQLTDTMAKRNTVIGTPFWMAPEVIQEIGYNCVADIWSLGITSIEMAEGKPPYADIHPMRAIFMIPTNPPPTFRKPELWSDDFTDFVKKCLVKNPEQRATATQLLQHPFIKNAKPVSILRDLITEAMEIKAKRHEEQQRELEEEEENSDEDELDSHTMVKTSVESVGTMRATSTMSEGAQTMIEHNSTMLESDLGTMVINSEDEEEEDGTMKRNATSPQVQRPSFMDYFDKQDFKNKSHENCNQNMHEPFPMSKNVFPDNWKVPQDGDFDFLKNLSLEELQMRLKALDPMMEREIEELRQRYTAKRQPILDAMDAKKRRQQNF
Assay: DSF 100 kinase selectivity screen;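 further: compound tested at 20 µM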
Type: binding
Details: Protein STK3; DSF; average of three replicates
Reported dTm is given for each of the following compounds.

| Compound | dTm, K |
| --- | --- |
| Cc1cc(NC(=O)C2(C(=O)Nc3ccc(F)cc3)CC2)cc(-c2c[nH]c3ncnc(N4CCOCC4)c23)c1 | 6.70 |
| O=C(Nc1cc(F)cc(Br)c1)C1(C(=O)Nc2cccc(-c3c[nH]c4ncnc(N5CCOCC5)c34)c2)CC1 | 2.54 |
| CNC(=O)c1cc(Oc2ccc(NC(=O)Nc3cc(C(C)(C)C)nn3-c3ccc4ncccc4c3)c(F)c2)ccn1 [Rebastinib, reference compound] | 9.02 |
| Cc1cc(F)ccc1NC(=O)C1(C(=O)Nc2cccc(-c3c[nH]c4ncnc(N5CCOCC5)c34)c2)CC1 | 6.63 |

----------
Some compounds, each annotated with its measured dTm.
Target: ~100 representative kinases (Homo sapiens)
Construct: Recombinant protein kinase domains with a concentration of 2 μM
Assay: DSF 100 kinase selectivity screen;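 further: compound tested at 20 µM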
Assay type: binding
Details: protein PKMYT1; average of three replicates
Procedure: Recombinant protein kinase domains with a concentration of 2 μM were mixed with a 20 μM compound solution in dimethyl sulfoxide (DMSO), 20 mM Hepes (pH 7.5), and 500 mM NaCl. SYPRO Orange (5000×, Invitrogen) was added as a fluorescence probe (1μl/ml). Subsequently, temperature-dependent protein unfolding profiles were measured using the QuantStudio 5 realtime PCR machine (Thermo Fisher Scientific, Waltham, MA, USA). […] The temperature was raised with a step rate of 3°C/min. […]

| Chemical structure | Measured target | Unit spec | dTm |
| --- | --- | --- | --- |
| O=C(Nc1ccc(Cl)cc1)C1(C(=O)Nc2cccc(-c3c[nH]c4ncnc(N5CCOCC5)c34)c2)CC1 | ~100 representative kinases (Homo sapiens) | K | 0.52 |
| O=C(Nc1ccc(F)cc1)C1(C(=O)Nc2cccc(-c3c[nH]c4ncnc(N5CCOCC5)c34)c2)CC1 | ~100 representative kinases (Homo sapiens) | K | -2.28 |
| O=C(Nc1cccc(-c2c[nH]c3ncnc(N4CCOCC4)c23)c1)C1(C(=O)Nc2ccc(F)cc2F)CC1 | ~100 representative kinases (Homo sapiens) | K | -0.59 |
| CCNc1nc(Nc2cc(F)c(C(=O)N3CCOCC3)cc2OC)ncc1C(F)(F)F | ~100 representative kinases (Homo sapiens) | K | -0.40 |
| O=C(Nc1cccc(-c2c[nH]c3ncnc(N4CCOCC4)c23)c1)C1(C(=O)Nc2cccc3c2CCC3)CC1 | ~100 representative kinases (Homo sapiens) | K | -0.88 |
| O=C(Nc1cccc(-c2c[nH]c3ncnc(N4CCOCC4)c23)c1)C1(C(=O)Nc2ccc(F)c(Br)c2)CC1 | ~100 representative kinases (Homo sapiens) | K | -0.61 |
| CCSc1nc(NC)c2c(-c3cccc(NC(=O)Nc4cc(C(C)(C)C)nn4-c4ccc(C)cc4)c3)c[nH]c2n1 | ~100 representative kinases (Homo sapiens) | K | 0.22 |

src = paper PMC12136037
